Target: Nox2 (Homo sapiens)
Construct: endogenous in cells
Test: CBA probe assay of H2O2 production by PMA-activated dHL60 cells
Assay type: cell-based
Details: PMA (1 µM)-activated dHL60 cells, 30 min preincubation with inhibitor; read-out: IC50, inhibition of H2O2 production, CBA Assay
IC50 for assorted compounds

smiles | IC50 (µM)
CC(C)N1CCN(CCCn2c(SCCc3c[nH]c4ccccc34)nc3ccc(F)cc3c2=O)CC1 | 7
CN(C)CCCn1c(SCCc2c[nH]c3ccccc23)nc2ccc(Cl)cc2c1=O | 3.1
CN(C)CCCn1c(SCCc2c[nH]c3ccccc23)nc2ccc(F)cc2c1=O | 4.3
CCN1CCN(CCCn2c(SCCc3c[nH]c4ccccc34)nc3ccc(F)cc3c2=O)CC1 | 5.3
CC(C)N1CCN(C(=O)CCCn2c(SCCc3c[nH]c4ccccc34)nc3ccc(F)cc3c2=O)CC1 | 23.6

====

log10 IC50 for assorted compounds
Target: Nox2 (Homo sapiens, UniProt P04839)
Construct: endogenous in cells
Sequence (P04839 2-570 limits assumed): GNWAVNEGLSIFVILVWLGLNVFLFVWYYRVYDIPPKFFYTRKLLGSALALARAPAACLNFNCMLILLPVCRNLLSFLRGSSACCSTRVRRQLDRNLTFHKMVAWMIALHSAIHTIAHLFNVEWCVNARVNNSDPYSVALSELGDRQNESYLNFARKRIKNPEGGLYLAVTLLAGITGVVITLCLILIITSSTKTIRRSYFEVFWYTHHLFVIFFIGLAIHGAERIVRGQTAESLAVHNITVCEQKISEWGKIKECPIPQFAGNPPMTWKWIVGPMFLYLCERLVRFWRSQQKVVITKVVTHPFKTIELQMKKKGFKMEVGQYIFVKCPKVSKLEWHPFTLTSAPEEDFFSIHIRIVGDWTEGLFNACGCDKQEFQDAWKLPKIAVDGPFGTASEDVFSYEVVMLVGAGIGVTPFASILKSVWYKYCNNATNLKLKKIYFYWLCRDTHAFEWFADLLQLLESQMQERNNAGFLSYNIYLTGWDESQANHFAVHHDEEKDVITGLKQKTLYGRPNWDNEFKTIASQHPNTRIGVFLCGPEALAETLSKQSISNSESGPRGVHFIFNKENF
Sequence (P13498 2-195 partner limits assumed): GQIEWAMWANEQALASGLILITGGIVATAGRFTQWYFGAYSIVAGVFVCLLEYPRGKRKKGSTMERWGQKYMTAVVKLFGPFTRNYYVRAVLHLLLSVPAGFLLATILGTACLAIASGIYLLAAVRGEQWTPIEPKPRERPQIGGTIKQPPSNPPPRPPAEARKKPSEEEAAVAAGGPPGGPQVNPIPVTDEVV
Assay: Amplex Red/HRP assay of H2O2 production by PMA-activated dHL60 cells
Type: cell-based
Conditions: PMA (1 µM)-activated dHL60 cells, 30 min preincubation; read-out: IC50, inhibition of H2O2 production, Amplex Red Assay
measurement_type: log10 IC50 (log10 of the value in µM)

compound | log10 IC50
CC(C)N1CCN(CCCn2c(SCCc3c[nH]c4ccccc34)nc3ccc(F)cc3c2=O)CC1 [TG17-57] | 0.96
CCN1CCN(CCCn2c(SCCc3c[nH]c4ccccc34)nc3ccc(F)cc3c2=O)CC1 [TG17-56] | 0.89
CC(C)N1CCN(C(=O)CCCn2c(SCCc3c[nH]c4ccccc34)nc3ccc(F)cc3c2=O)CC1 [TG15-293] | 1.83
CN(C)CCCn1c(SCCc2c[nH]c3ccccc23)nc2ccc(Cl)cc2c1=O [TG15-139] | 0.69
CN(C)CCCn1c(SCCc2c[nH]c3ccccc23)nc2ccc(F)cc2c1=O [TG15-132] | 0.90

====

Test: Plasma and brain pharmacokinetics in Sprague Dawley rats
Type: in vivo
Details: rat, brain, ip, single dose 20 mg/kg i.p., read-out: brain half-life (converted)
measurement_type: half-life (h)

compound | readout_units | reading
CN(C)CCCn1c(SCCc2c[nH]c3ccccc23)nc2ccc(F)cc2c1=O [TG15-132] | h | 5.6

====

Experiment: Plasma and brain pharmacokinetics in Sprague Dawley rats
Assay type: in vivo
Settings: rat, plasma, ip, single dose 20 mg/kg i.p., read-out: plasma half-life (converted)

compound | half-life (h)
CN(C)CCCn1c(SCCc2c[nH]c3ccccc23)nc2ccc(F)cc2c1=O [TG15-132] | 3.7

====

pIC50 for assorted compounds
Tested on: dHL60 cells
Assay: Cell Titer Glo 2.0 cytotoxicity (ATP) assay in PMA-stimulated dHL60 cells
Format: cell-based, human
Conditions: Homo sapiens; Cell Titer Glo 2.0, PMA-stimulated dHL60 cells, 2.5 h with inhibitor; unit not printed in Table 3, taken from text; read-out: IC50, Viability Assay
pIC50: −log10 of the molar value.
measurement_type: pIC50

smiles | measurement_type | reading
CC(C)N1CCN(C(=O)CCCn2c(SCCc3c[nH]c4ccccc34)nc3ccc(F)cc3c2=O)CC1 | pIC50 | 4.42
CCN1CCN(CCCn2c(SCCc3c[nH]c4ccccc34)nc3ccc(F)cc3c2=O)CC1 | pIC50 | 4.78
CN(C)CCCn1c(SCCc2c[nH]c3ccccc23)nc2ccc(Cl)cc2c1=O | pIC50 | 4.85
CN(C)CCCn1c(SCCc2c[nH]c3ccccc23)nc2ccc(F)cc2c1=O | pIC50 | 4.46
CC(C)N1CCN(CCCn2c(SCCc3c[nH]c4ccccc34)nc3ccc(F)cc3c2=O)CC1 | pIC50 | 4.68

Data credit: paper PMC10525516
